Test system: U2OS
Protocol Summary: Multiplex assay against U2OS
Assay type: toxicity, cell-based
Study Conditions: human, 12 h, 1 µM, compound concentration 1 uM, replicate 2
Binarize Population Mitotic Cells (%) at 70%; below is Yes, at or above is No.

**Q:** Hello, I'm reviewing records and need to know if Population Mitotic Cells (%) of `Cc1csc2c(N[C@@H](C)CN3CCN(S(=O)(=O)c4ccc(Cl)c(Cl)c4)CC3)ncnc12` is below 70%. Could you check?
**A:** No

**Q:** Hello, I'm reviewing records and need to know if Population Mitotic Cells (%) of `CNc1nc(NCc2ccc(NS(C)(=O)=O)cc2Cl)cc(-c2ccccn2)n1` is below 70%. Could you check?
**A:** Yes

**Q:** Hello, I'm reviewing records and need to know if Population Mitotic Cells (%) of `C=CC(=O)Nc1cccc(C(=O)Nc2ccc(Nc3cc(-c4[nH]c(SC)nc4C)ccn3)cc2)c1` is below 70%. Could you check?
**A:** No

**Q:** Hello, I'm reviewing records and need to know if Population Mitotic Cells (%) of `CN(C)CC#Cc1ccc(OCCCc2sc(N3CCc4cccc(C(=O)Nc5nc6ccccc6s5)c4C3)nc2C(=O)O)c(F)c1` is below 70%. Could you check?
**A:** Yes

**Q:** Hello, I'm reviewing records and need to know if Population Mitotic Cells (%) of `Cc1[nH]c(/C=C2\C(=O)Nc3ccc(S(=O)(=O)N(C)c4cccc(Cl)c4)cc32)c(C)c1C(=O)N1CCN(C)CC1` is below 70%. Could you check?
**A:** Yes

**Q:** Hello, I'm reviewing records and need to know if Population Mitotic Cells (%) of CN(C)C(=O)N[C@H]1CC[C@H](CCN2CCN(c3cccc(Cl)c3Cl)CC2)CC1.Cl [CARIPRAZINE HYDROCHLORIDE] is below 70%. Could you check?
**A:** Yes

The values you see were collected from ChEMBL document CHEMBL4689842.
